- ASSAY_REMARKS: Antiinflammatory activity in human neutrophils assessed as inhibition of fMLP/cytochalasin B-induced superoxide anion production after 5 mins by spectrophotometer analysis
- Format: functional, cell-based
- EXPERIMENTAL_CONDITIONS: Neutrophil
READOUT_KIND: pIC50
Answers are plain numbers, as −log10 of the molar value.

INSERT INTO measurements (compound, recorded_result) VALUES
  ('C/C=C(\C)C(=O)Oc1cc(C)ccc1C1(COC(C)=O)CO1 (configuration not stated)', 5.08),
  ('CC(=O)c1ccc(CO)cc1O', 5.09),
  ('C/C=C(/C)C(=O)OCC(O)(COC(C)=O)c1ccc(C)cc1O (configuration not stated)', 4.88),
  ('C=C(COC(C)=O)c1ccc(C)cc1OC(=O)/C(C)=C/C', 5.07),
  ('O=c1cc(N2CCOCC2)oc2c(-c3ccccc3)cccc12', 5.96);

Please supply pIC50 for each of the following items, keeping them in order.
1. COC(C)(COC(=O)C(C)C)c1ccc(C)cc1O (configuration not stated)
2. C/C=C(\C)C(=O)Oc1cc(C)ccc1C(C)COC(C)=O (configuration not stated)

Ans:
1: 5.09; 2: 4.74
